Data provenance: patent US20230233569A1

Molecular target: KRAS WT (Homo sapiens, UniProt P01116+P62937)
Sequence (P01116 1-169 isoform P01116-2 limits assumed, one chain of several): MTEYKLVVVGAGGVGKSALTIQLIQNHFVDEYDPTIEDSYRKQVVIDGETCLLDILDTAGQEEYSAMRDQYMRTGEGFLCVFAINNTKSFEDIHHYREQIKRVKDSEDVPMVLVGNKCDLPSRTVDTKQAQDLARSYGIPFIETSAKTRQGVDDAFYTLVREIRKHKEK
Experiment: Ras-Raf disruption / FRET / MOA assay (BRAF RBD)
Type: biochemical
Conditions: KRAS WT FRET data IC50, Ras-Raf disruption, with Cyclophilin A
From the text: Disruption of […] Ras-binding Domain (BRAF^RBD) Interaction with K-Ras by Compounds of the Invention (also Called a FRET Assay or an MOA Assay) Note—The following protocol describes a procedure for monitoring disruption of K-Ras G12C (GMP-PNP) binding to BRAF^RBD by a compound of the invention. This protocol may also be executed substituting other Ras proteins or nucleotides, such as K-Ras G12D and K-Ras G13D. […]
QUANTITY: IC50

Here's what some known entries look like.
- COMPOUND: "CCn1c(-c2cc(N3CCN(C)CC3)cnc2[C@H](C)OC)c2c3cc(ccc31)-c1cc(O)cc(c1)C[C@H](NC(=O)[C@H](C1CCCC1)N(C)C(=O)CN(C)C(=O)[C@H]1CN1)C(=O)N1CCC[C@H](N1)C(=O)OCC(C)(C)C2 [Example 209]"
  IC50: "10 to 100 nM"
- COMPOUND: "CCn1c(-c2cccnc2[C@H](C)OC)c2c3cc(ccc31)-c1cc(O)cc(c1)C[C@H](NC(=O)[C@H](C(C)C)N(C)C(=O)CN(C)C(=O)[C@@H]1N[C@@H]1C1COC1)C(=O)N1CCC[C@H](N1)C(=O)OCC(C)(C)C2 [Example 281]"
  IC50: "10 to 100 nM"
- COMPOUND: "CCn1c(-c2cccnc2[C@H](C)OC)c2c3cc(ccc31)-c1cc(O)cc(c1)C[C@H](NC(=O)[C@H](C(C)C)N(C)C(=O)[C@@H](C)N(C)C(=O)[C@H]1CN1)C(=O)N1CCC[C@H](N1)C(=O)OCC(C)(C)C2 [Example 114]"
  IC50: "1000 to 10000 nM"
- COMPOUND: "CCn1c(-c2cccnc2[C@H](C)OC)c2c3cc(ccc31)-c1cc(O)cc(c1)C[C@H](NC(=O)[C@H](C(C)C)N(C)C(=O)[C@H]1CCN1C(=O)[C@H]1CN1)C(=O)N1CCC[C@H](N1)C(=O)OCC(C)(C)C2 [Example 158]"
  IC50: "10 to 100 nM"

// below: IC50 requested for another compound
Lookup: IC50 / KRAS WT (Homo sapiens, UniProt P01116+P62937) / CCn1c(-c2cccnc2[C@H](C)OC)c2c3cc(ccc31)-c1cc(O)cc(c1)C[C@H](NC(=O)[C@H](C(C)C)N(C)C(=O)CN(C)C(=O)[C@@H]1CN1CC(=O)N(C)C)C(=O)N1CCC[C@H](N1)C(=O)OCC(C)(C)C2 (some centres unmarked) [Example 271] 10 to 100 nM

---

target: KRAS G13C (Homo sapiens, UniProt P01116+P62937, G13C); assay: Disruption of BRAF RBD interaction with Ras (FRET / MOA assay, with Cyclophilin A); format: biochemical; conditions: KRAS G13C; read-out: KRAS G13C FRET data IC50
Sequence (P01116 1-169 isoform P01116-2 G13C): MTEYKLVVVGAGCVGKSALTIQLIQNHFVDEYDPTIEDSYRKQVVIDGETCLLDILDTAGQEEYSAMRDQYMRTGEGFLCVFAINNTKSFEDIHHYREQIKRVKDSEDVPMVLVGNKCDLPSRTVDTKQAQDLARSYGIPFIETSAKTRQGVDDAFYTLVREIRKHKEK
Sequence (P62937 whole entry): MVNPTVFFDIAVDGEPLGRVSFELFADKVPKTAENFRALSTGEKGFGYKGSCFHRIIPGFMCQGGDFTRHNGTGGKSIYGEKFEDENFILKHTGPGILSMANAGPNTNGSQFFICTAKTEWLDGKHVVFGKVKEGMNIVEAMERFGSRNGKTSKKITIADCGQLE
Measured IC50 values are reported for all entries that follow.

Here's what some known entries look like.
- COMPOUND: "C=CC(=O)N1CC(OC[C@H](C(=O)N[C@H]2Cc3cccc(c3)-c3ccc4c(c3)c(c(-c3cccnc3[C@H](C)OC)n4CC)CC(C)(C)COC(=O)[C@@H]3CCCN(N3)C2=O)C(C)C)C1 (racemic)"
  IC50: "1 to 10 µM"
- COMPOUND: "C=CC(=O)N1CC[C@H](C(=O)N(C)[C@H](C(=O)N[C@H]2Cc3cc(O)cc(c3)-c3ccc4c(c3)c(c(C3=C(COC)COCC3)n4CC)CC(C)(C)COC(=O)[C@@H]3CCCN(N3)C2=O)C(C)C)C1"
  IC50: "1 to 10 µM"

So what's the measured IC50 for this one? "CCn1c(-c2cccnc2[C@H](C)OC)c2c3cc(ccc31)N1CCO[C@@H](C[C@H](NC(=O)[C@H](C(C)C)N(C)C(=O)[C@@]3(F)CCN(C(=O)C#CC(C)(C)N4CCC4)C3)C(=O)N3CCC[C@H](N3)C(=O)OCC(C)(C)C2)C1" 0.1 to 1 µM

Moving on to the next compound: "CCn1c(-c2cccnc2[C@H](C)OC)c2c3cc(ccc31)-c1csc(n1)C[C@H](NC(=O)[C@H](C(C)C)N(C)C(=O)N1CC(N(C)C(=O)C#CC(C)(C)N3CCC3)C1)C(=O)N1CCC[C@H](N1)C(=O)OCC(C)(C)C2" 0.01 to 0.1 µM

Moving on to the next compound: "C=CC(=O)N1CC[C@H](C(=O)N(C)[C@H](C(=O)N[C@H]2Cc3nc(cs3)-c3ccc4c(c3)c(c(-c3cccnc3[C@H](C)OC)n4CC)CC(C)(C)CN(C)C[C@@H]3CCCN(N3)C2=O)C(C)C)C1" > 10 µM

Moving on to the next compound: "CCn1c(-c2ccccc2CN(C)C)c2c3cc(ccc31)-c1cc(O)cc(c1)C[C@H](NC(=O)[C@H](C(C)C)N(C)C(=O)[C@H]1CCN(C(=O)/C=C/CN(C)C)C1)C(=O)N1CCC[C@H](N1)C(=O)OCC(C)(C)C2" 0.1 to 1 µM

---

biological target: KRAS G12C (Homo sapiens, UniProt P01116+P62937, G12C); test: Disruption of BRAF RBD interaction with Ras (FRET / MOA assay, with Cyclophilin A); format: biochemical; conditions: read-out: KRAS G12C FRET data, IC50
Sequence (P01116 1-169 isoform P01116-2 G12C, one chain of several): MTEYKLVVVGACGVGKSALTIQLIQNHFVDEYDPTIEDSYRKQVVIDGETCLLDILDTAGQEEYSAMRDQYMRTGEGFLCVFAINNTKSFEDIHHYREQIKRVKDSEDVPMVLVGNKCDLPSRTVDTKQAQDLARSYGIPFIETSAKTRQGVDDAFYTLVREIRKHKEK
pIC50: −log10 of the molar value.
QUANTITY: pIC50

Here's what some known entries look like.
- COMPOUND: "CCn1c(-c2cccnc2[C@H](C)OC)c2c3cc(ccc31)-c1cc(O)cc(c1)C[C@H](NC(=O)[C@H](C(C)C)N(C)C(=O)C1COC1)C(=O)N1CCC[C@H](N1)C(=O)OCC(C)(C)C2"
  QUANTITY: "pIC50"
  READOUT VALUE: "7.00 to 8.00"
- COMPOUND: "CCn1c(-c2cccnc2[C@H](C)OC)c2c3cc(ccc31)-c1csc(n1)C[C@H](NC(=O)[C@H](C(C)C)N(C)C(=O)N1CCC3(CC1)CN(C)CCO3)C(=O)N1CCC[C@H](N1)C(=O)OCC(C)(C)C2"
  QUANTITY: "pIC50"
  READOUT VALUE: "6.00 to 7.00"
- COMPOUND: "CCn1c(-c2cc(C3CCN(C)CC3)cnc2[C@H](C)OC)c2c3cc(ccc31)-c1csc(n1)C[C@H](NC(=O)[C@H](C(C)C)N(C)C(=O)N1CCOCC1)C(=O)N1CCC[C@H](N1)C(=O)OCC(C)(C)C2 (atropisomer, axis not shown)"
  QUANTITY: "pIC50"
  READOUT VALUE: "7.00 to 8.00"

// below: pIC50 requested for another compound
So what's the measured pIC50 for this one? "CCn1c(-c2cccnc2[C@H](C)OC)c2c3cc(ccc31)-c1csc(n1)C[C@H](NC(=O)[C@H](C(C)C)N(C)C(=O)[C@H]1CCCO1)C(=O)N1CCC[C@H](N1)C(=O)OCC(C)(C)C2" 5.00 to 6.00

---

Measured pIC50 values are reported for all entries that follow.
target: KRAS G12C (Homo sapiens, UniProt P01116+P62937, G12C); assay: Disruption of BRAF RBD interaction with Ras (FRET / MOA assay, with Cyclophilin A); type: biochemical; conditions: read-out: KRAS G12C FRET data, IC50
pIC50: −log10 of the molar value.

- MOLECULE: "CCn1c(-c2cccnc2[C@H](C)OC)c2c3cc(ccc31)-c1csc(n1)C[C@H](NC(=O)[C@H](C(C)C)N(C)C(=O)N1C[C@@H]3CN(C)CC[C@@H]31)C(=O)N1CCC[C@H](N1)C(=O)OCC(C)(C)C2 [Example A481]"
  TESTED ON: "KRAS G12C (Homo sapiens, UniProt P01116+P62937, G12C)"
  pIC50: "6.00 to 7.00"

So what's the measured pIC50 for this one? CCn1c(-c2cccnc2[C@H](C)OC)c2c3cc(ccc31)-c1cc(O)cc(c1)C[C@H](NC(=O)[C@H](C(C)C)N(C)C(=O)C1(O)CC1)C(=O)N1CCC[C@H](N1)C(=O)OCC(C)(C)C2 (atropisomer, axis not shown) [Example A132] 7.00 to 8.00

---

target: KRAS G12D (Homo sapiens, UniProt P01116+P62937, G12D); assay: Disruption of BRAF RBD interaction with Ras (FRET / MOA assay, with Cyclophilin A); type: biochemical; settings: read-out: KRAS G12D FRET data, IC50
Sequence (P01116 1-169 isoform P01116-2 G12D limits assumed): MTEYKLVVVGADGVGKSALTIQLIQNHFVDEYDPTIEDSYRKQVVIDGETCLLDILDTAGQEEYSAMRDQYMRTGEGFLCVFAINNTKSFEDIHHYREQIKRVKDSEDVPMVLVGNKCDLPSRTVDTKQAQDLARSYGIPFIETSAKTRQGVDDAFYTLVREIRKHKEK
Sequence (P62937 whole entry): as the sequence (P62937 whole entry) above
QUANTITY: IC50

So what's the measured IC50 for this one? "C=CC(=O)N1CC[C@H](C(=O)N(C)[C@H](C(=O)N[C@H]2Cc3cc(O)cc(c3)-c3ccc4c(c3)c(c(-c3ccc(CN5CCCC5)cc3)n4CC)CC(C)(C)COC(=O)[C@@H]3CCCN(N3)C2=O)C(C)C)C1" > 10000 nM
